Source of measurements: PubChem BioAssay AID2685

assay: qHTS Assay for Lipid Storage Modulators in Drosophila S3 Cells; settings: BODIPY lipid droplet fluorescence, 18-24 h, cells fed with added oleic acid; series mostly up to 46.1 µM
The whole screen tested about 320,000 compounds, of which about 2,100 (0.66%) were called active. About 53% were inconclusive and are not listed. The call rests on the fitted dose curve; in most records, active means well fitted inhibition curve with a large enough effect in the signal ratio, with a control signal flat (not every such curve was filed as active); inconclusive means small, poorly fitted or top-dose-only effect, or effect the other way, or a change in a side signal; inactive means flat fitted curve, though single readings scatter; the % refers to the signal ratio. The sample as a whole holds a higher share of actives than the screen did.
Possible outcomes: active, inactive

chemical_structure	discrete_label
CCNC(=O)COc1ccc(/C=C2\COc3ccccc3C2=O)cc1OC	active
CCOc1cc(/C=C2\COc3ccccc3C2=O)cc(Br)c1OCC(=O)N(C)C	inactive
CCCCn1c(=O)[nH]c(=O)c2c1nc(-c1cc(Br)c(OCC)c(OC)c1)n2C	inactive
CCCn1c(-c2cccc(F)c2)nc2c1c(=O)[nH]c(=O)n2Cc1ccccc1	inactive
CCCCn1c(=O)[nH]c(=O)c2c1nc(-c1ccc(OC)c(Br)c1)n2CC(C)C	active
